Cited source for all entries: the EternaBench riboswitch data

- Tested on: MS2 coat protein
- PROTOCOL: apparent Kd, MS2 coat protein; higher = weaker binding; RNA-MaP array; FMN 200 µM where present
- PARTICULARS: ligand present: flavin mononucleotide; designed as: OFF switch for flavin mononucleotide
Answer no (0) if apparent Kd is under 60 nM, and yes (1) if it is 60 nM or more.

Use these answered entries as a reference point.
GGAUUUACUGAGGAUAUUGCAUCACCCGACUGAUAAGAAGGCAGAACAUGAGGAUCACCCAUGUGGGUACUCAC; yes (1)
CUGUGACGGUGCGCAAGUGGACGGAGAAGGCAGACAUGAGGAUCACCCAUGUGAGCCUGCUAUUCUGAGGAUAUCCGUUCGUAC; yes (1)
AUGCUUCACACAGGAUAUUACAACAUGAGGAUCACCCAUGUACAUGACAUGAGGAUCACCCAUGUUAAGAAGGGUGUGAAGCAU; yes (1)
UCACGGCUCGGAGGAUAUGACACAUGAGGAUCACCCAUGUGUGUAAGCCAAUAAACCUACAAAUGUCAGAAGGCCGCGCCUCAU; no (0)
GCAAGAAUAGGAUAUACACCGUGUCAGCUUUUAUAUAUCGCACAUGAGGAUCACCCAUGUAGAAGGGUUCUCUG; yes (1)
GGAUAGGACAGAGGAUAUACGUGCUAGAGAUACUAGCAAAAUUUCCUCACAUGAGGAUCACCCAUGUAGAAGGCUGUCCGAUCG; yes (1)

Now, please, on to the next sequence.
Query :: Reported apparent Kd reaches at least 60 nM for ACCAUUUACUAAUCCUCUAUACAUGAGGAUCACCCAUGUUAAGAGGAUAUCAUCGUUCGCCGCGUUGAGAAGGCUUAGCAUUCG ?
Result :: no (0)
